Please provide measured Ki for the entries that follow.
- assayed-system: chitinase enzyme extracted from Trichoderma viride
- measurement-description: Chitinase inhibition assay (NP-GlcNAc substrate)
- Format: biochemical
- run-conditions: Enz.-inhib. incubation time 3 h
Value expressed in µM; do not type the unit.

Q: Checklist item: Ki tested on chitinase enzyme extracted from Trichoderma viride, entry C=C(C)CNC(=N)NCCCCCCN1CCCCCCCCNC(=N)NC1=O [Compound 37] , value?
Result: 34.8

Q: Item: C#CCNC(=N)NCCCCCCN1CCCCCCCCNC(=N)NC1=O [Compound 39]
Result: 31.3

Q: Item: N=C(NCCCCCCCCN1CCCCCCCCNC(=N)NC1=O)NCC1CC1 [Compound 34]
Result: 42

Q: Item: C/C=C/CNC(=N)NCCCCCCN1CCCCCCCCNC(=N)NC1=O [Compound 36]
Result: 35.8

Q: Item: C/C=C/CNC(=N)NCCCCCCCCN1CCCCCCCCNC(=N)NC1=O [Compound 35]
Result: 50.8

Q: Item: CCNC(=N)NCCCCCCN1CCCCCCCCNC(=N)NC1=O [Compound 38]
Result: 45.3

Q: Item: C/C=C/CNC(=N)NCCCCCCCCN1CCCCCOc2ccccc2CNC(=N)NC1=O [Example 17]
Result: 17.8

###

Please provide measured MIC90 for the entries that follow.
- Tested on: C. parapsilosis
- measurement-description: Antimicrobial susceptibility testing (microdilution MIC90), C. parapsilosis strains
- Format: cell-based, Candida parapsilosis
- run-conditions: Lodderomyces parapsilosis; C. parapsilosis (24 strains tested); 24 h
Value expressed in µg/mL; do not type the unit.

Q: I would be grateful if you could share the reported MIC90 for C/C=C/CNC(=N)NCCCCCCCCN1CCCCCOC(=O)CCNC(=N)NC1=O [Example 19] .
Result: 32

Q: Item: C/C=C/CNC(=N)NCCCCCCCCN1CCCCCOc2ccccc2CNC(=N)NC1=O [Example 17]
Result: 2

Q: Item: OC(Cn1cncn1)(Cn1cncn1)c1ccc(F)cc1F [F, Fluconazole, reference compound]
Result: 0.5

Q: Item: C/C=C/CNC(=N)NCCCCCCCCN1CCCCCCOC(=O)CCNC(=N)NC1=O [Example 20]
Result: 8

Q: Item: C/C=C/CNC(=N)NCCCCCCCCN1CCCc2cccc(c2)COc2ccccc2CNC(=N)NC1=O [Example 23]
Result: 256

Q: Item: C/C=C/CNC(=N)NCCCCCCCCN1CCCCOc2ccccc2CNC(=N)NC1=O [Example 16]
Result: 8

Q: Item: C/C=C/CNC(=N)NCCCCCCCCN1CCCCCCOc2ccccc2C(c2cn(-c3ccccc3)nn2)NC(=N)NC1=O (stereo not drawn) [Example 21]
Result: 32

Q: Item: C/C=C/CNC(=N)NCCCCCCCCN1CCCc2ccccc2COc2ccccc2CNC(=N)NC1=O [Example 22]
Result: 64

Q: Item: C/C=C/CNC(=N)NCCCCCCCCN1CCCCCCOc2ccccc2CNC(=N)NC1=O [Example 18]
Result: 2

###

Please provide measured MIC90 for the entries that follow.
- System: C. guilliermondii
- measurement-description: Antimicrobial susceptibility testing (microdilution MIC90), C. guilliermondii strains
- Format: cell-based, Candida guilliermondii
- run-conditions: Meyerozyma guilliermondii; C. guilliermondii (10 strains tested); 24 h
- Protocol: Sterile plastic microtitration plates containing flat-bottomed wells were used. The plates contained serial dilution of the antifungal agents with a volume of assay medium of 100 μL/well. Two drug-free medium wells were used as sterility and growth controls. […] The minimal inhibitory concentrations (MICs) were determined at 24 h both visually and spectrophotometrically measuring the turbidity at 595 nm with a Varian model 1475 spectrophotometer. […]
Value expressed in µg/mL; do not type the unit.

Q: I would be grateful if you could share the reported MIC90 for C/C=C/CNC(=N)NCCCCCCCCN1CCCCCCOc2ccccc2CNC(=N)NC1=O [Example 18] .
Result: 2

Q: Item: OC(Cn1cncn1)(Cn1cncn1)c1ccc(F)cc1F [F, Fluconazole, reference compound]
Result: 4

Q: Item: C/C=C/CNC(=N)NCCCCCCCCN1CCCCCCOc2ccccc2C(c2cn(-c3ccccc3)nn2)NC(=N)NC1=O (stereo not drawn) [Example 21]
Result: 32

Q: Item: C/C=C/CNC(=N)NCCCCCCCCN1CCCCOc2ccccc2CNC(=N)NC1=O [Example 16]
Result: 16

Q: Item: C/C=C/CNC(=N)NCCCCCCCCN1CCCCCCOC(=O)CCNC(=N)NC1=O [Example 20]
Result: 8

Q: Item: C/C=C/CNC(=N)NCCCCCCCCN1CCCc2ccccc2COc2ccccc2CNC(=N)NC1=O [Example 22]
Result: 64

Q: Item: C/C=C/CNC(=N)NCCCCCCCCN1CCCCCOc2ccccc2CNC(=N)NC1=O [Example 17]
Result: 2

Q: Item: C/C=C/CNC(=N)NCCCCCCCCN1CCCCCOC(=O)CCNC(=N)NC1=O [Example 19]
Result: 32

Q: Item: C/C=C/CNC(=N)NCCCCCCCCN1CCCc2cccc(c2)COc2ccccc2CNC(=N)NC1=O [Example 23]
Result: 256

###

- System: C. albicans fluconazole resistant strains
- measurement-description: microbe, parasite or virus in culture
- Type: cell-based
- run-conditions: Candida albicans, 24 h, strain DSY284, ERG11 Mutation, mean of three measurements
# if measured MIC < 8 µg/mL: yes (1)  # else: no (0)

Q: Determine whether this compound shows MIC lower than 8 µg/mL (ties excluded): C/C=C/CNC(=N)NCCCCCCCCN1CCCCOc2ccccc2CNC(=N)NC1=O
Result: no (0)

Q: Item: C/C=C/CNC(=N)NCCCCCCCCN1CCCCCOc2ccccc2CNC(=N)NC1=O
Result: yes (1)

Q: Item: C/C=C/CNC(=N)NCCCCCCCCN1CCCCCOC(=O)CCNC(=N)NC1=O
Result: no (0)

Q: Item: C[C@@H](c1ncncc1F)[C@](O)(Cn1cncn1)c1ccc(F)cc1F [VOR, Voriconazole, reference compound]
Result: yes (1)

Q: Item: OC(Cn1cncn1)(Cn1cncn1)c1ccc(F)cc1F [F, Fluconazole, reference compound]
Result: no (0)

###

- assayed-system: chitinase enzyme extracted from Trichoderma viride
- measurement-description: Chitinase inhibition assay (NP-GlcNAc substrate)
- Format: biochemical
- run-conditions: Enz.-inhib. incubation time 20 min
- Procedure: Chitinase inhibition assays were conducted against an example of the GH18 family of chitinases, i.e the chitinase enzyme extracted from Trichoderma viride. […] The mixture with the inhibitor at various concentrations and the enzyme was prepared directly into the reading plate and left to incubate at room temperature for 20 minutes or three hours. At the end of the incubation times, the substrate was added and the reading was conducted by recording the values up to a maximum time of 10 minutes. […]
Please provide measured pKi for the entries that follow.
Conceptually, pKi converts a concentration in mol/L into minus its log10.

Q: I would be grateful if you could share the reported pKi for N=C(NCCCCCCCCN1CCCCCCCCNC(=N)NC1=O)NCC1CC1 .
Result: 4.09

Q: Item: C/C=C/CNC(=N)NCCCCCCCCN1CCCCCCCCNC(=N)NC1=O
Result: 4.22

Q: Item: C/C=C/CNC(=N)NCCCCCCCCN1CCCCCOc2ccccc2CNC(=N)NC1=O
Result: 4.31

Q: Item: C=C(C)CNC(=N)NCCCCCCN1CCCCCCCCNC(=N)NC1=O
Result: 4.09

Q: Item: CCNC(=N)NCCCCCCN1CCCCCCCCNC(=N)NC1=O
Result: 3.79

Q: Item: C#CCNC(=N)NCCCCCCN1CCCCCCCCNC(=N)NC1=O
Result: 4.26

###

- System: C. glabrata fluconazole resistant strains
- measurement-description: microbe, parasite or virus in culture
- Format: cell-based, Candida glabrata
- run-conditions: Nakaseomyces glabratus, 24 h, strain DSY2271, ↑CDR2
Please provide measured MIC for the entries that follow.

Q: Checklist item: MIC tested on C. glabrata fluconazole resistant strains, entry C/C=C/CNC(=N)NCCCCCCCCN1CCCCCOc2ccccc2CNC(=N)NC1=O , value?
Result: 8 µg/mL

Q: Item: OC(Cn1cncn1)(Cn1cncn1)c1ccc(F)cc1F [F, Fluconazole, reference compound]
Result: 64 µg/mL

Q: Item: C/C=C/CNC(=N)NCCCCCCCCN1CCCCOc2ccccc2CNC(=N)NC1=O
Result: 64 µg/mL

Q: Item: C/C=C/CNC(=N)NCCCCCCCCN1CCCCCCOc2ccccc2CNC(=N)NC1=O
Result: 32 µg/mL

Q: Item: C/C=C/CNC(=N)NCCCCCCCCN1CCCCCOC(=O)CCNC(=N)NC1=O
Result: 64 µg/mL

###

- Test system: C. albicans fluconazole resistant strains
- measurement-description: microbe, parasite or virus in culture
- Format: cell-based
- run-conditions: Candida albicans, 24 h, strain DSY735, ↑CDR1-CDR2
Please provide measured MIC for the entries that follow.
Value expressed in µg/mL; do not type the unit.

Q: Checklist item: MIC tested on C. albicans fluconazole resistant strains, entry C/C=C/CNC(=N)NCCCCCCCCN1CCCCCOc2ccccc2CNC(=N)NC1=O [Example 17] , value?
Result: 2

Q: Item: C[C@@H](c1ncncc1F)[C@](O)(Cn1cncn1)c1ccc(F)cc1F [VOR, Voriconazole, reference compound]
Result: 2

Q: Item: C/C=C/CNC(=N)NCCCCCCCCN1CCCCOc2ccccc2CNC(=N)NC1=O [Example 16]
Result: 8

Q: Item: OC(Cn1cncn1)(Cn1cncn1)c1ccc(F)cc1F [F, Fluconazole, reference compound]
Result: 64

Q: Item: C/C=C/CNC(=N)NCCCCCCCCN1CCCCCOC(=O)CCNC(=N)NC1=O [Example 19]
Result: 8

Q: Item: C/C=C/CNC(=N)NCCCCCCCCN1CCCCCCOc2ccccc2CNC(=N)NC1=O [Example 18]
Result: 16
